testedSystem: T1, Ebola virus GP with a C-terminal polyhistidine tag (Sino Biologicals, Catalog #40442-V08B1) (Ebola virus, UniProt P87666 33-650)
T1 construct: also called EbolaGP.his; Ebola virus GP.his
assayProtocol: SPR 37C, mAb captured
measuredEndpoint: koff (s⁻¹)
# number only, unit s⁻¹ dropped from output

{"binder": "H1H17151P (antibody, V domains shown) VH: EVQLVESGGGLVQPGGSLRLSCAASGFTFSSYAMNWVRQAPGKGLEWVSVISGSGGWRNYADSVKGRITISRDNSKNTLYLQMNNLRAEDTAVYYCAKDRGATFGVVILGPPYYGMDVWGQGTTVTVSS VL: DIQMTQSPSSLSASVRDRVTITCRASQSISTYLNWYQQKPGKAPKLLIYAASSLQSGVPSRFSGSGSGTGFTLTISSLQPEDFATYYCQQSYSIPYTFGQGTKLEIK", "resultUnit": "s⁻¹", "koff": 0.000383}
{"binder": "H1H17193P (antibody, V domains shown) VH: QVQLVESGGGVVQPGRSLRLSCAASGFTFSSYGIHWVRQAPGKWLEWVAFIWFDGSNKYYADSVKGRFTISRDDSKNTLYLQMNSLRAEDTAVYYCARDGEIFGVLISSDAFDIWGQGTMVTVSS VL: DIQMTQSPSSLSASVGDRVTITCRASRGIRNDLGWFQQKPGKAPKRLIYVASNLQSGVPSRFSGSGSGTEFTLTISSLQPEDFATYYCLQHNSYPITFGQGTRLEIK", "resultUnit": "s⁻¹", "koff": 0.000503}

Shifting focus to the binder that follows.
What koff value was documented for this binder, H1H17199P (antibody, V domains shown) VH: EVQLVESGGGLVQPGGSLRLSCAASGFTFSDHYMVWVRQAPGKGLEWVGRTRNKANSYSTEYAASVKGRFTISRDDSKKSLYLQMNSLKTEDTAVYYCARGGETLWFGESNYGMDVWGQGTTVTVSS VL: EIVLTQSPDTLSLSPGERATLSCRASQSVSSTYLAWYQQKPGQAPSLLIYGASSRATGIPDRFSGSGSGTDFTLTISRLEPEDFAVYYCQQYGRSPLTFGGGTKVEIK ?
0.00128
